Source of measurements: patent US20220144848A1

biological target: human factor XIa (Homo sapiens)
Sequence (P03951 388-625 limits assumed): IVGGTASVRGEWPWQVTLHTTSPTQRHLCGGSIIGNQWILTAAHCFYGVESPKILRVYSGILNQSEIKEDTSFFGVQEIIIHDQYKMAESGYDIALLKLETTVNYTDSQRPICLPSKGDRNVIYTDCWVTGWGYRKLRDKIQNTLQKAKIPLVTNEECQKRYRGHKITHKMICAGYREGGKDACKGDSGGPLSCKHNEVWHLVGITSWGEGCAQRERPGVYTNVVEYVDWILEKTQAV
Sequence (P03951 19-387 partner limits assumed): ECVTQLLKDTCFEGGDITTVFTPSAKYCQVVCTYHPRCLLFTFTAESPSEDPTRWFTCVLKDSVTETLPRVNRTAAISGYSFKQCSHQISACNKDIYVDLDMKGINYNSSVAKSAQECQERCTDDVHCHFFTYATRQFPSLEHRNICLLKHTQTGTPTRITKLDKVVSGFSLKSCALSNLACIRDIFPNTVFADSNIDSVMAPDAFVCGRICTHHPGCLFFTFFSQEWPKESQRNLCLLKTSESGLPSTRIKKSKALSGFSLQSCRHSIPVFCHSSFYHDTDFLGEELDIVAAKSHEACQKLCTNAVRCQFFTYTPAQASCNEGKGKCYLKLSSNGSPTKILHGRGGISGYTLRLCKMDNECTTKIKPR
Could you mark each record Met if its IC50 falls strictly under 10 nM, and Not met if it equals or exceeds it?

Please review the entries below; each comes with its answer.
| compound | assignedLabel |
| --- | --- |
| CC[C@@H](C(=O)Nc1ccc(C(N)=O)c(F)c1)n1cc2c(cc1=O)-c1cc(Cl)ccc1CC(C(F)F)OC2 (mixture of isomers) | Not met |
| CC[C@@H]1Cc2ccc(Cl)cc2-c2cc(=O)n([C@@H](C[C@@H]3CCCCO3)C(=O)Nc3ccc(C(N)=O)c(F)c3)cc2CO1 (single isomer, unassigned) | Not met |
| CC[C@@H]1Cc2ccc(Cl)cc2-c2cc(=O)n(C(C[C@@H]3CCCCO3)C(=O)Nc3ccc(C(N)=O)c(F)c3)cc2CO1 (mixture of isomers) | Not met |
| CO[C@@H](C)C[C@@H](C(=O)Nc1ccc(C(N)=O)cc1)n1cc2c(cc1=O)-c1cc(Cl)ccc1C[C@@H](C)OC2 (single isomer, unassigned) | Met |

Q) Input CC(C)OCC[C@@H](C(=O)Nc1ccc(C(N)=O)cc1)n1cc2c(cc1=O)-c1cc(Cl)ccc1C[C@@H](C)OC2 (single isomer, unassigned) ; condition: IC50 strictly below 10 nM. Does it hold?
A) Met

---

target: human plasma kallikrein (Homo sapiens, UniProt P03952); experiment: Determination of the plasma kallikrein activity (fluorogenic peptide substrate H-Pro-Phe-Arg-AMC); conditions: plasma kallikrein from Kordia, 15 min preincubation, 30 min at 22° C., fluorescence; some as mean values from multiple determinations
Sequence (P03952 391-638 limits assumed): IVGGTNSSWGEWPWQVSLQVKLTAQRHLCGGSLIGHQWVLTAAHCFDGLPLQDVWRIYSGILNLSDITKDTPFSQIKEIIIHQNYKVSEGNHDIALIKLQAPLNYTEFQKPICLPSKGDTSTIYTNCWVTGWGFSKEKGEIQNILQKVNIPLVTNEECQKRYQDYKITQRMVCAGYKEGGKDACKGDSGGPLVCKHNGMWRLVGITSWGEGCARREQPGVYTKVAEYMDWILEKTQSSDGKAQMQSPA
Sequence (P03952 20-390 partner limits assumed): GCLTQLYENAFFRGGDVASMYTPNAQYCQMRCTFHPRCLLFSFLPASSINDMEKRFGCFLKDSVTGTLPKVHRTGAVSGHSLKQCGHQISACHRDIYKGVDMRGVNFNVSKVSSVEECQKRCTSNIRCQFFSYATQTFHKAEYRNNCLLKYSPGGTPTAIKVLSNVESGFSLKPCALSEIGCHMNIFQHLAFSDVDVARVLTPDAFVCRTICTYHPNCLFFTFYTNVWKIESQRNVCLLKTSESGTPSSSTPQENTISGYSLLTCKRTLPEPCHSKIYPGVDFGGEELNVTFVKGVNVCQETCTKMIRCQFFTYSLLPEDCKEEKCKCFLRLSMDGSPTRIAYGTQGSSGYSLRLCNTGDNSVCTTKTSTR
A collection of molecules and their measured IC50
Field format: number, assumed nM, no unit text.

Before answering, review these 2 worked examples.
| molecule | recordedMeasurement |
| --- | --- |
| CC1Cc2ccc(Cl)cc2-c2cc(=O)n(C(C[C@@H]3COCCO3)C(=O)Nc3ccc(C(N)=O)c(F)c3)cc2CO1 (mixture of isomers) | 780 |
| C[C@@H]1Cc2ccc(Cl)cc2-c2cc(=O)n([C@@H](CCOC(C)(C)C)C(=O)Nc3ccn4ncnc4c3)cc2CO1 (single isomer, unassigned) | 170 |

Consider now this further molecule.
Q) Report IC50 for CC1Cc2ccc(Cl)cc2-c2cc(=O)n(C(C[C@@H]3CCCCO3)C(=O)Nc3ccc(C(N)=O)cc3)cc2CO1 (mixture of isomers) tested on human plasma kallikrein (Homo sapiens, UniProt P03952).
A) 400

---

A collection of molecules and their measured pIC50
Biological target: human plasma kallikrein (Homo sapiens, UniProt P03952)
Assay: Determination of the plasma kallikrein activity (fluorogenic peptide substrate H-Pro-Phe-Arg-AMC)
Details: plasma kallikrein from Kordia, 15 min preincubation, 30 min at 22° C., fluorescence; some as mean values from multiple determinations
Experimental: To determine the plasma kallikrein inhibition of the substances according to the invention, a biochemical test system is used which utilizes the reaction of a peptidic plasma kallikrein substrate to determine the enzymatic activity of human plasma kallikrein. Here, plasma kallikrein cleaves from the peptidic plasma kallikrein substrate the C-terminal aminomethylcoumarin (AMC), the fluorescence of which is measured. The determinations are carried out in microtitre plates. […]
Please treat pIC50 as minus the base-10 logarithm of the molar concentration.

Before answering, review these 5 worked examples.
| molecule | pIC50 |
| --- | --- |
| CC[C@@H](C(=O)Nc1ccc(C(N)=O)cc1)n1cc2c(cc1=O)-c1c(ccc(Cl)c1F)C[C@@H](C)OC2 (single isomer, unassigned) | 6.72 |
| CC1Cc2ccc(Cl)cc2-c2cc(=O)n(C(C[C@@H]3CCCCO3)C(=O)Nc3ccc(C(N)=O)c(F)c3)cc2CO1 (single isomer, unassigned) | 6.20 |
| CC[C@@H]1Cc2ccc(Cl)cc2-c2cc(=O)n(C(C[C@@H]3CCCCO3)C(=O)Nc3ccc(C(N)=O)c(F)c3)cc2CO1 (mixture of isomers) | 5.89 |
| NC(=O)c1ccc(NC(=O)C(C[C@@H]2COCCO2)n2cc3c(cc2=O)-c2cc(Cl)ccc2CC(C(F)(F)F)OC3)cc1 (mixture of isomers) | 6.64 |
| C[C@@H]1Cc2ccc(Cl)cc2-c2cc(=O)n([C@@H](C[C@@H]3CCCCO3)C(=O)Nc3ccc(C(N)=O)cc3)cc2CO1 (single isomer, unassigned) | 6.85 |

Q) Given C[C@@H]1Cc2ccc(Cl)cc2-c2cc(=O)n([C@@H](C[C@H](C)OC(F)F)C(=O)Nc3ccc(C(N)=O)cc3)cc2CO1 (single isomer, unassigned) , state its recorded pIC50.
A) 6.96

Q) Field entry: NC(=O)c1ccc(NC(=O)[C@H](C[C@@H]2CCCCO2)n2cc3c(cc2=O)-c2cc(Cl)ccc2C[C@@H](C(F)(F)F)OC3)cn1 (single isomer, unassigned)
A) 6.52
